target under test: DCAF15/RBM39 (Homo sapiens, UniProt Q14498+Q66K64)
measurement description: AlphaLISA compound-induced DCAF15-RBM39 ternary complex formation
test parameters: His-tagged DCAF15 complex and biotin-carrying RBM39
Some compounds, each annotated with its measured EC50.

compound | EC50
Nc1ccc(S(=O)(=O)Nc2cnc3c(Cl)cccc3n2)cc1 [CQS, cloroquinoxaline sulfonamide, reference compound] | 1 to 10 µM
CS(=O)(=O)c1ccc(CCOc2ccc(S(=O)(=O)Nc3ccc(Cl)c4c(Cl)c[nH]c34)cc2)cc1 | 1 to 10 µM
O=C(NCCCc1ccc(Cl)cc1)c1cccc(S(=O)(=O)Nc2ccc(Cl)c3c(Cl)c[nH]c23)c1F | > 100 µM
O=C(c1ccc(S(=O)(=O)Nc2ccc(Cl)c3c(Cl)c[nH]c23)c(F)c1)N1CCc2[nH]c(-c3ccccc3)nc2C1 | 1 to 10 µM
O=S(=O)(Nc1ccc(Cl)c2c(Cl)c[nH]c12)c1cccc(OCCCN2CCCc3ccccc32)c1 | 1 to 10 µM
O=S(=O)(Nc1ccc(Cl)c2c(Cl)c[nH]c12)c1ccc(OCc2ccc3c(c2)CNC3)cc1 | < 1 µM
O=S(=O)(Nc1ccc(Cl)c2c(Cl)c[nH]c12)c1cccc(OCCC[C@@H]2CCCN2)c1 | < 1 µM
CCS(=O)(=O)CCNC(=O)c1ccc(S(=O)(=O)Nc2ccc(Cl)c3c(Cl)c[nH]c23)c(F)c1 | < 1 µM
CC(C)c1cc(S(=O)(=O)Nc2ccc(Cl)c3c(Cl)c[nH]c23)ccc1OCc1ccccc1 | 10 to 100 µM
CCN(CC)C(=O)c1ccc(CNC(=O)c2ccc(S(=O)(=O)Nc3ccc(Cl)c4c(Cl)c[nH]c34)c(F)c2)cc1 | 1 to 10 µM
O=C(NCCOCC1CC1)c1cccc(S(=O)(=O)Nc2ccc(Cl)c3c(Cl)c[nH]c23)c1F | 1 to 10 µM
O=S(=O)(Nc1ccc(Cl)c2c(Cl)c[nH]c12)c1ccc(O[C@H]2CC[C@H](OCc3ccccc3)CC2)cc1 | > 100 µM
CN(C)C(=O)C[C@H](NC(=O)c1cccc(S(=O)(=O)Nc2ccc(Cl)c3c(Cl)c[nH]c23)c1F)c1ccccc1 | 1 to 10 µM
CC(C)C[C@H](NC(=O)c1cccc(S(=O)(=O)Nc2ccc(Cl)c3c(Cl)c[nH]c23)c1F)c1nc2ccccc2[nH]1 | < 1 µM
Cc1ccnc([C@@H](NC(=O)c2ccc(S(=O)(=O)Nc3ccc(Cl)c4c(Cl)c[nH]c34)c(F)c2)C2CC2)c1 | 1 to 10 µM
O=C(c1cccc(S(=O)(=O)Nc2ccc(Cl)c3c(Cl)c[nH]c23)c1F)N1CCC(c2ccnc(C(F)F)c2)CC1 | < 1 µM
CN1C[C@@H](NC(=O)c2ccc(S(=O)(=O)Nc3ccc(Cl)c4c(Cl)c[nH]c34)c(F)c2)CCC1=O | < 1 µM
O=C(c1cccc(S(=O)(=O)Nc2ccc(Cl)c3c(Cl)c[nH]c23)c1F)N1CC[C@H](n2ccnn2)C1 | < 1 µM
Cc1ccnc([C@@H](NC(=O)c2cccc(S(=O)(=O)Nc3ccc(Cl)c4c(Cl)c[nH]c34)c2F)C2CC2)c1 | 1 to 10 µM
O=S(=O)(Nc1ccc(Cl)c2c(Cl)c[nH]c12)c1cccc(OC2CCC3(CC2)CNC3)c1 | < 1 µM
O=C(NC[C@H]1Cc2ccccc21)c1ccc(S(=O)(=O)Nc2ccc(Cl)c3c(Cl)c[nH]c23)c(F)c1 | > 100 µM
CC(C)(C)OC(=O)N1CCC2(CC1)CN(C(=O)c1cccc(S(=O)(=O)Nc3ccc(Cl)c4c(Cl)c[nH]c34)c1F)CCO2 | < 1 µM
CC(C)CNC(=O)c1ccc(S(=O)(=O)Nc2ccc(Cl)c3c(Cl)c[nH]c23)cc1 | < 1 µM
O=C(NCC1CCN(CCCc2ccccc2)CC1)c1ccc(S(=O)(=O)Nc2ccc(Cl)c3c(Cl)c[nH]c23)c(F)c1 | < 1 µM
CN(C)C(=O)c1ccc(CCNC(=O)c2ccc(S(=O)(=O)Nc3ccc(Cl)c4c(Cl)c[nH]c34)c(F)c2)cc1 | 1 to 10 µM
O=S(=O)(Nc1ccc(Cl)c2c(Cl)c[nH]c12)c1ccc(OC[C@@H]2CCCNC2)cc1 | 1 to 10 µM
CC[C@H](NC(=O)c1cccc(S(=O)(=O)Nc2ccc(Cl)c3c(Cl)c[nH]c23)c1F)c1ccc2c(c1)OCCO2 | 1 to 10 µM
CCc1cnc(N2CCC(CCCOc3cccc(S(=O)(=O)Nc4ccc(Cl)c5c(Cl)c[nH]c45)c3)CC2)nc1 | > 100 µM

Value source: patent US20240327351A1
